molecular target: psCA3-β (Pseudomonas aeruginosa, UniProt Q9HVB9); construct: recombinant, expressed in E. coli (DE3), purified; assay: stopped-flow CO2 hydrase assay
Sequence (Q9HVB9 1-215): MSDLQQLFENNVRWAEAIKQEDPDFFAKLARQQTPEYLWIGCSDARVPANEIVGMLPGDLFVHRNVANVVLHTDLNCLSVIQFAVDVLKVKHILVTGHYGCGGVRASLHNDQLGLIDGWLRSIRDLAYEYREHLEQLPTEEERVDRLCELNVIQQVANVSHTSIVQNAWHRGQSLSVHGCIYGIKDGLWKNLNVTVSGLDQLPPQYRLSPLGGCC
Could you please report measured pKi for the items listed next?
Give bare numbers, as −log10 of the molar value.

{"Molecule": "CNC(=S)NN=C(C)c1ccc(OC)cc1 [compound 1, TSC 1]", "Measured On": "psCA3-β (Pseudomonas aeruginosa, UniProt Q9HVB9)", "pKi": 4.04}
{"Molecule": "CNC(=S)NN=C(C)c1ccc(S(C)(=O)=O)cc1 [compound 2, TSC 2]", "Measured On": "psCA3-β (Pseudomonas aeruginosa, UniProt Q9HVB9)", "pKi": 4.03}

Now consider a different molecule.
State pKi on psCA3-β (Pseudomonas aeruginosa, UniProt Q9HVB9). Entry: CNC(=S)NN=C(C)c1ccc(Br)s1 [compound 9, TSC 9]
4.06

* * *

biological target: EcoβCA (Escherichia coli, UniProt P61517); construct: recombinant, expressed in E. coli (DE3), purified; experiment: stopped-flow CO2 hydrase assay
Sequence (P61517 whole entry): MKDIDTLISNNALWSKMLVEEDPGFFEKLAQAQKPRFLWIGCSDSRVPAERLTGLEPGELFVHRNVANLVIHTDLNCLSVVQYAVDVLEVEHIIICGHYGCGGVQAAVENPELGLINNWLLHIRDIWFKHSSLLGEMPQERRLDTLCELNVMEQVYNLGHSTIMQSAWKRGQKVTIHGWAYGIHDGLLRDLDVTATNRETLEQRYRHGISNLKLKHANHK
Endpoint: Ki
The reply must contain the numeric value and, after it, the unit.

{"Structure As Smiles": "CNC(=S)NN=C(C)c1ccc(N2CCOCC2)cc1", "Ki": "91.5 µM"}

Please examine the following record next.
Determine its reported Ki: CNC(=S)NN=C(C)c1ccc2c(c1)OCCO2
96.5 µM

* * *

target: EcoγCA (Escherichia coli, UniProt P0A9W9); construct: recombinant, expressed in E. coli (DE3), purified; experiment: stopped-flow CO2 hydrase assay
Sequence (P0A9W9 whole entry): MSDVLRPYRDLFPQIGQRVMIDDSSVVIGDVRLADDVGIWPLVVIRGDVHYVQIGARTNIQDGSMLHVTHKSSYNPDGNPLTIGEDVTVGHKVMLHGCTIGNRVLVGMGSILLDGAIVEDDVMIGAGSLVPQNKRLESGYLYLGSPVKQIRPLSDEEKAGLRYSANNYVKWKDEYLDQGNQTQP
Provide the reported Ki of each item.
Give bare numbers, in µM.

Observe how each entry below is paired with its result.
{"Structure As Smiles": "CNC(=S)NN=C(C)c1ccc(Br)s1", "Endpoint": "Ki", "Unit Spec": "µM", "Readout Number": 83.2}
{"Structure As Smiles": "CNC(=S)NN=C(C)c1ccc(OC)cc1", "Endpoint": "Ki", "Unit Spec": "µM", "Readout Number": 86.2}

Now for a further compound.
Read off the recorded Ki for CNC(=S)NN=C(C)c1ccc(S(C)(=O)=O)cc1
80
